assay-overview: yeast display, Sf9 membrane polyspecificity reagent, FACS + sequencing; frameworks hold sequencing errors
quantity-kind: polyreactivity (PSR sort gate)

Consider the following illustrative entries.
QVQLVESGGGLVQAGGSLRLSCAASGSIFWRNAMGWYRQAPGKERALVAAISGNGGTTYYADSVKGRFTISRDYAKNTVYLQINSLKPEDTAVYYCAKVGKTYRTYEDWGQGTQVTVSS high polyreactivity
QVQLVESGGGLVQAGGSLRLSCAASGGTFSVYGMGWYRPAPGKERDLVAVINGTDGITYYADSVKARVTISRDNAKNTVYLQMNSLKPEDTAVYDCAKDSDFLAYHGLDHWGQGTLVTVSS low polyreactivity
QVQLVESGGGLVQAGGSLRLSCAASGSNFRGYTMGWYRQAPGKERELVANISTSVGRTYYADSVKGRFTISRDNAKNTVFLQMNSLKPEDTAVYYCNARRAYRWKPDTGSAGMDYWGQGTQVTVSS high polyreactivity
QVQLVESGGGLVQAGGSLRLSCAASGGIFPFYAMGWYRQAPGKERELVAAISSGGSTYYADSVKGRFTISRDNAKNTVYLQMNSLKPEDTAVYYCAKRISTRRYDYWGQGTQVTVSS low polyreactivity
QVQLVESGGGLVQAGGRLRLSCAASGRIFDTYAMGWYRQAPGKERELVASINWSAGSTYYADSVKGRFTISRDNAMNTVYLQMNSLKPEDTAVYYCATYSSYYWQSSYVYWEFDYWGQGTQVTVSS high polyreactivity

// query Param item = "QVQLVESGGGLVQAGGSLRLSCAASGSIYGDYVMGWYRQAPGKERELVAAINRGGYTYYADSVKGRFTISRDNAKNTVYLQMNSLKPEDTAVYYCAAGYPSWYYGYPYDSWGQGTQVTVSS" ; retrieve measured polyreactivity (PSR sort gate).
// result low polyreactivity

// query Param item = "QDQLVESGGGLVQAGGSLRLSCAASGITFWYYAMGWYRQAPGKERELVAAITRSGRTNYADSVKGRFTISRDYAKNTVYLQMNILKPEDTAVYYCAVDLYSFSPRYYYWGQGTQVTVSS" ; retrieve measured polyreactivity (PSR sort gate).
// result low polyreactivity

// query Param item = "QVQLVESGVGLVQAGGSLRLSCAASGRIFGSYTMGWYRQAPGKERELVAGISRRGGSTYYADSVKGRFTISRDNAKNTVYLQMNSLKPEDTAVYYCAVVSSHYKGPGRNGYDYWGQGTQVTVSS" ; retrieve measured polyreactivity (PSR sort gate).
// result high polyreactivity

// query Param item = "QVQLVESGGGLVQAGGSLRLICAASGGIFATYAMGWYRQAPGKEMELVAAITKRGGSTYYADSVKGRFTISRDNAKNTVYLQMNSLTPEDTAVYYCAAKGYRWFRLGGYYFKFDYWGQGTQVTVSS" ; retrieve measured polyreactivity (PSR sort gate).
// result high polyreactivity

// query Param item = "QVQLVESGGGLVQAGGSLRLSCAASGRIFVRNPMGWYRQAPGKERELVADITNGGSTNYADSVKGRFTISRDNAKNTVYLQMNSLKPEDTAVYYCAATYPYSWVYSGYYYWGQGTQVTVSS" ; retrieve measured polyreactivity (PSR sort gate).
// result low polyreactivity

// query Param item = "QVQLVESGGGLVQAGGSLRLSCAASGRTFTVYAMGWYRQAPGKERELVAAIIYSGGRTYYADSVKGRFTISRDNAKNTVYLQMNSLKPEDTAVYYCAAYVYQSCPRFSRYGGYDYWGQGTQVTVSS" ; retrieve measured polyreactivity (PSR sort gate).
// result low polyreactivity

###

assay-overview: yeast display, Sf9 membrane polyspecificity reagent, FACS + sequencing; frameworks hold sequencing errors
quantity-kind: polyreactivity (PSR sort gate)

Consider the following illustrative entries.
QVQLVESGGGLVQAGGSLRLSCAASGLIFITYAMGWYRQAPGKERELVATITLRGGSTYYADSVKGRFTISRDNAKNTVYLQMNSLKPEDTAVYYCAADVGYWGRSSGYPSDDYDYWGQGTQVTVSS low polyreactivity
QDQLVESGGGLVQAGGSLRLSCAASGFTFACYTMGWYRQAPGKERELVAGIDWSGGSTYYADSVKGRFTISRDNEKNTVYLEMNSLKPEDTAVYYCNAAVLYYVYPGYDYWGQGTQVTVSS high polyreactivity
QVQLVESGGGLVQAGGSLRLSCAASGSIFSIYAMGWYRQAPGKERDFVASITVTDGSTYYADSVKGRFTISRDIAKNTVYLQMNSLKPEDTAVYYCFADGWYALYEWLAVSGYYWGQGTQVTVST low polyreactivity
QVQLVESGGGLVQAGGSLRLSCAASGSISGRNTMGWYRQAPGKERELVAAISWSGGSTYYADSVKGRFTISRDNAKNTVYLQMNSLKPEDTAVYYCAARNWRGVGGGVGRYGYWGQGTQVTVSS high polyreactivity

Lab note: next sequence to report on.
// query Param item = "QDQHVESGGGLVQAGGSLRLSCDASGRTFTRYAMGWYRQAPGKERELVAAISRGGSTYYADSVKRRFTISRDNAKNTVYLQMNSLKPEDTAVYYCAARYGTYTAGNYWGQGTQVTVSS" ; retrieve measured polyreactivity (PSR sort gate).
// result high polyreactivity

###

assay-overview: yeast display, Sf9 membrane polyspecificity reagent, FACS + sequencing; frameworks hold sequencing errors
quantity-kind: polyreactivity (PSR sort gate)

QVQLVESGGGLVQAGASLRLICAASGYTSSGYAMGRYRHAPGKERELVAAISADGGSTYYADSVKGRFTISRDNAKNTVYLQMNSLKPEDTAVYYCAKYTYPYTPYSWWYDYWGQGTQVTVSS low polyreactivity
QGQLVESGGGLVQAGGSLRLSCAASGSTFGKYVMGWYRQAHGKERELVAAISRSGGSTYYADSVKGRFTISRDNAKNTVYLQLNSLKPDDTAVYYCAAYNGITSHLRFDYWGQGTQVTVSS high polyreactivity
QVQLVESGGGLVQAGGSLRLSCAASGSTFVHNAMGWYRQAPGKERELVARISFRSGRTYYADSVKGRFTISRDNAKNTVYLQMNSLKAEDTAVYYCNAVLYGQYKYDYWGQGTQVTVSS high polyreactivity
QVQLVESGGGLVQAGGSLRLSCAASGSTFRDNAMGWYRQAPGKERELVAAISRRGGNTYYADSVKGRFTISRDNAKNTVYLQMNSLKPEDTAVYYCAAEVKTSYSYTHDGYWGQGTQVTVSS high polyreactivity

Lab note: next sequence to report on.
// query Param item = "QVQLVESGGGLVQAGGSLRLSCAASGSTFTINVMGWYRQAPGKERELVAAINGGGRTNYADSVKGRFTFSRDNAKNTVYLQMNSLKPEDTAVYYCAADGLSHVRQMDYWGQGTQVTVSS" ; retrieve measured polyreactivity (PSR sort gate).
// result low polyreactivity

###

assay-overview: yeast display, Sf9 membrane polyspecificity reagent, FACS + sequencing; frameworks hold sequencing errors
quantity-kind: polyreactivity (PSR sort gate)

QVQLVESVGGLVQAGGSLRLSCASSGLIFPIYTMGWYRQAPGKERELVAASSSRGGSTYYADSVKGRFTISRDNAKNSVYLQMNCLKPEDTAVYDFGSYDYSGQGTQVTVSS high polyreactivity
QVQLVESGGGLVQAGGSLRLSCAASGYTFTHYAMGWYRQAPGKERELVAGITWSGGSTYYADSVKGRLTISRDNAKNTVYLQMNSLKPEDTSVYYCAAKYYWYYSYSGIPLFDYWGQGTQVTVSS low polyreactivity
QVQLLESGGGIVQAGGSLRLSCAASGRINAMGWYRQAPGKERELVAVITLRGGSTYYADSVKGRFTISRDNAKNTVYLQMNSLKPEYTAVYYCAAVYRWPDAKYDYWGQGTQVSVSS low polyreactivity
QLQLVESGGGLVQAGGSLRLSCAASGRIFGNYAMGWYRQAPGKERELVASINIGGGSTYYADSVKGRFTISRDNAKNTVYLQMNSLKQEATAVYYCAAPNTTDYWPAQPGFDYWGQGTQVTVSS low polyreactivity
QVQLEESGGGLVQAGGSLRLSCAASGSTFTFYAMGRYRQAPGKERELVAAINGRGGSTYYADSVKGRFTISRDNAKNTVYLQMNSLKPEDTAVYYCATRLYYSVRYNMGYWGQGTQVTVSS high polyreactivity
QVQLVESGGGLVQAGGSLRLSCAASGNTFVQNDMGWYRQAPGKEREFVAAITWIGGSTRYADSVKGRFTISRDNAKNTVYLQMNSLKPEDTAVYYCAVKPVGWPRYRVDYWGQGTQVTVSS high polyreactivity
QVQLVESGGGLVQAGGSLRLSCAASGFTFYYYAMGWSRQAPGKERELVAAISSAGGRTYYADSVKGRFTISRDNAKNTVYLQMNSLKPEDTAVYYCAATIKAYPTPLLGDYWGQGTQVTVSS high polyreactivity
HVQLQESGRRPGAAGGSPRMSCAASGNIYWVAVMGRYRQAPGEERELVASIGFGCTTYYADSVKCRFTISRDNAKNTVYLQMISLKPEDTAVYYCAAPHYDWGELDYWGQGTQVPVSS low polyreactivity

Lab note: next sequence to report on.
// query Param item = "QVQLVESGGGLVQAGGSLRLSCAASGSTFYSNAMGWYRQAPGKERELVAGIDTSDGSTNYADSVKGRFTISRDNAKNTVYLQMNSLKPEDTAVYYCAADYTQPGFVSYDYWGQGTQVTVSS" ; retrieve measured polyreactivity (PSR sort gate).
// result low polyreactivity
